Tested on: Wolbachia pipientis
Test name: Anti-Wolbachia Cell-Based Screen
Format: functional
Design: scale not given: in the data most compounds retested in dose-response had high values
Measurement setup: 5 µM
The campaign covered roughly 48,000 compounds. About 13,000 (27%) showed an effect of 50% or more. This is one part of the list.
Measured parameter: Percent Effect (%)
Express it in %; write the number only.

Guide cases for Percent Effect, answers given:
CC(=O)Nc1nc(SCc2ccc3c(c2)OCO3)ns1 = 70.31
Cc1ccc(CNC(=O)NCC(=O)NC(C)(C)C)c(N2CCCC2)c1 = 2.082
O=C(c1cnc(NCc2cccnc2)c(Cl)c1)N1CCCCC1 = 2.275
Cc1[nH]nc(CCC(=O)N2CCCC(OCc3cccnc3)C2)c1C (stereo not drawn) = 1.428
NC(=O)Nc1cccc(CNC(=O)CCCc2ccccc2)c1 = 3.307
c1cc(CNc2ncc(-c3cnccn3)c([C@@H]3CCCO3)n2)ccn1 = 102
O=C(c1cc(COc2ccc3c(c2)OCO3)[nH]n1)N1CCSCC1 = 4.191

// switching to the query compound
Ask: Which Percent Effect is listed for CC(=O)NCCNC(=O)c1cnc2c(c1)nc(-c1ccccc1Cl)n2C ?
Reply: -9.781
